Ki overview
Target or system: 5-HT2A receptor (Homo sapiens, UniProt P28223)
Sequence (P28223 whole entry): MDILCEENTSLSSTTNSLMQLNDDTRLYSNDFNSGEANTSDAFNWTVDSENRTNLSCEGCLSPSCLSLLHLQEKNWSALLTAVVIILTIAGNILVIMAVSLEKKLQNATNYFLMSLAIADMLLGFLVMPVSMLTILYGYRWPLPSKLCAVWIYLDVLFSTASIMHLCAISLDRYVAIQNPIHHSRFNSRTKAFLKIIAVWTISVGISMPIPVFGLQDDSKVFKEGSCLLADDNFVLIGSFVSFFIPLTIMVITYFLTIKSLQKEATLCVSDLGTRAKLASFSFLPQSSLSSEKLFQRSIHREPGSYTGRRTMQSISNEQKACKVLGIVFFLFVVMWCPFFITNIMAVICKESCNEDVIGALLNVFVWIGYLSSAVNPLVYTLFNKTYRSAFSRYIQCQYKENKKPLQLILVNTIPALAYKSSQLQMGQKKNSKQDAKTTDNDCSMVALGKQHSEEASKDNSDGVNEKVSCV
Assay name: pKi of test compounds, 5-HT2A receptor
Type: binding
Observable: Ki

Compound: CCNC(=O)N1CCN(CCCC(c2ccc(F)cc2)c2ccc(F)cc2)CC1 [Amperozide]
Observable: Ki
Value observed: 1 to 10 nM
--
Compound: Cc1nc2c(C)cccn2c(=O)c1CCN1CCC(c2noc3cc(F)ccc23)CC1 [Ocaperidone]
Observable: Ki
Value observed: < 1 nM
--
Compound: O=C1CC2(CCCC2)CC(=O)N1CCCCN1CCN(c2nsc3ccccc23)CC1 [Tiospirone]
Observable: Ki
Value observed: < 1 nM
--
Compound: CN1CC2c3ccccc3Oc3ccc(Cl)cc3C2C1 (stereo not shown) [ORG5222]
Observable: Ki
Value observed: < 1 nM

----------
Target or system: D2 (Homo sapiens)
Sequence (P14416 whole entry): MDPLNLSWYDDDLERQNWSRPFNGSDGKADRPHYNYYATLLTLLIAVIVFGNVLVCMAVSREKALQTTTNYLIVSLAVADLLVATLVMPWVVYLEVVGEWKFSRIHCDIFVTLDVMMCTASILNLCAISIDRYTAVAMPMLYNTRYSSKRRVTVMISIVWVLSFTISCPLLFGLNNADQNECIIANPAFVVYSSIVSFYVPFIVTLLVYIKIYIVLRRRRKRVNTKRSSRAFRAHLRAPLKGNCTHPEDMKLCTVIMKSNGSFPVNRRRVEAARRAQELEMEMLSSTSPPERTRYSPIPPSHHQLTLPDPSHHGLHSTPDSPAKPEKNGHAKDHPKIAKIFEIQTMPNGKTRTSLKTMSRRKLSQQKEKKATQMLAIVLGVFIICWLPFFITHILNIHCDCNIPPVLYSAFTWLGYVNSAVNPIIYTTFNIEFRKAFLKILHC
Assay name: pKi of test compounds, D2 receptor
Assay type: binding
pKi: −log10 of the molar value.
Observable: pKi

Smiles str: O=C1CC2(CCCC2)CC(=O)N1CCCCN1CCN(c2nsc3ccccc23)CC1
Value observed: 8.00 to 9.00

----------
Target or system: D3 (Homo sapiens, UniProt P35462)
Sequence (P35462 whole entry): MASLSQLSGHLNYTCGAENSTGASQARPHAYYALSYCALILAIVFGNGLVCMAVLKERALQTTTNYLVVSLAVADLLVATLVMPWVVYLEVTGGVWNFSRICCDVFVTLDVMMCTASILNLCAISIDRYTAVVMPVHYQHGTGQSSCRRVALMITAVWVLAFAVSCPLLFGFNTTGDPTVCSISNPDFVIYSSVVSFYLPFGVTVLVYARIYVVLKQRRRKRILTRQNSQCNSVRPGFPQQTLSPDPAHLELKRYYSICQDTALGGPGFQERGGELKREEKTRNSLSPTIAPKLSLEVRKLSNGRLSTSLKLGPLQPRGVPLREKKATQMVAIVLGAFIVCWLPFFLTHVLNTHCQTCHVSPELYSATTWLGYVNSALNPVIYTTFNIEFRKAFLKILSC
Assay name: pKi of test compounds, D3 receptor
Assay type: binding
Entries annotated with measured pKi D3
Observable: pKi D3

Molecule: O=C1N(CCN2CCC(c3noc4cc(F)ccc34)CC2)CCN1c1ccccc1
Observable: pKi D3
Value observed: 6-7
//
Molecule: N#Cc1ccc2c(c1)[C@H]1CN(CCCCNC(=O)c3ccc(-c4ccccc4)cc3)C[C@@H]1CO2
Observable: pKi D3
Value observed: >9
//
Molecule: O=C(CC1CCN(CCOc2cccc3c2OCCO3)C1)c1ccc(F)cc1 (stereo not shown)
Observable: pKi D3
Value observed: 7-8
//
Molecule: OC1(c2ccc(Cl)cc2)CCN(Cc2c[nH]c3ccccc23)CC1
Observable: pKi D3
Value observed: 7-8

----------
Target or system: 5HT6rat (Rattus norvegicus)
Sequence (P31388 whole entry): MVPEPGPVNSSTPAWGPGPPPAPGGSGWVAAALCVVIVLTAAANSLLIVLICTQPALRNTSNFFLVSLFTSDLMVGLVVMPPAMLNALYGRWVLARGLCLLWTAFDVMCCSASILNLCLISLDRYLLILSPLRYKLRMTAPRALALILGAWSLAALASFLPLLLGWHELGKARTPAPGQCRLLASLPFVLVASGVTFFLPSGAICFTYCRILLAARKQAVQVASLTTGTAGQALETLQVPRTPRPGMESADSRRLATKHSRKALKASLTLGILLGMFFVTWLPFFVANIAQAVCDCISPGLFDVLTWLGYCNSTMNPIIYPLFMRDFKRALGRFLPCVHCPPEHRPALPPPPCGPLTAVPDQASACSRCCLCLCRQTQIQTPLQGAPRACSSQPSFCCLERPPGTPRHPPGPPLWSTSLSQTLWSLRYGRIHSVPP
Assay name: pKi of test compounds, 5HT6 receptor
Assay type: binding
Observable: Ki

Smiles str: O=C1Cc2cc(CCN3CCN(c4nsc5ccccc45)CC3)c(Cl)cc2N1
Value observed: 10 to 100 nM

----------
Notes on Ki obtained with Beta2 (Homo sapiens).
Sequence (P07550 whole entry): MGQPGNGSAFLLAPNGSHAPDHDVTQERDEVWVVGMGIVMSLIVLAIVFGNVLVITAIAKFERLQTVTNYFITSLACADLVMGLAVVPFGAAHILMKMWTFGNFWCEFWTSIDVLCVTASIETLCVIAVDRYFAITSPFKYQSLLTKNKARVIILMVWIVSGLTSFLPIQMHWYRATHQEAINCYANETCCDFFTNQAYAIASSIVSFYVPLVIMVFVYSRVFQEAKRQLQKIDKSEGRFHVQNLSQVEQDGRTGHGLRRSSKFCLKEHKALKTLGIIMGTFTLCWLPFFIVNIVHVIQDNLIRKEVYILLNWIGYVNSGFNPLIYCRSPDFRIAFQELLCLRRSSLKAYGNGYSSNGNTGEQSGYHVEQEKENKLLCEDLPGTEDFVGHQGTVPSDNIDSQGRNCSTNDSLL
Observable: Ki

Compound: O=C1Cc2cc(CCN3CCN(c4nsc5ccccc45)CC3)c(Cl)cc2N1
Observable: Ki
Value observed: > 1000 nM
//
Compound: CN1CC2c3ccccc3Oc3ccc(Cl)cc3C2C1 (stereo not drawn)
Observable: Ki
Value observed: > 1000 nM
//
Compound: NC(=O)C1(N2CCCCC2)CCN(CCCC(=O)c2ccc(F)cc2)CC1
Observable: Ki
Value observed: > 1000 nM

----------
Target or system: UniProtKB P08913
Assay name: pKi of test compounds, adrenergic receptor Alpha2A
Type: binding
Observable: pKi Alpha2A

Molecule: O=C1N(CCN2CCC(c3noc4cc(F)ccc34)CC2)CCN1c1ccccc1
Target or system: UniProtKB P08913
Observable: pKi Alpha2A
Value observed: 6-7

Molecule: N#Cc1ccc2c(c1)[C@H]1CN(CCCCNC(=O)c3ccc(-c4ccccc4)cc3)C[C@@H]1CO2
Target or system: UniProtKB P08913
Observable: pKi Alpha2A
Value observed: <6

Molecule: O=C(CC1CCN(CCOc2cccc3c2OCCO3)C1)c1ccc(F)cc1 (stereo not shown)
Target or system: UniProtKB P08913
Observable: pKi Alpha2A
Value observed: 6-7

Molecule: OC1(c2ccc(Cl)cc2)CCN(Cc2c[nH]c3ccccc23)CC1
Target or system: UniProtKB P08913
Observable: pKi Alpha2A
Value observed: <6

----------
Target or system: Alpha1A (Homo sapiens)
Sequence (P35348 1-466): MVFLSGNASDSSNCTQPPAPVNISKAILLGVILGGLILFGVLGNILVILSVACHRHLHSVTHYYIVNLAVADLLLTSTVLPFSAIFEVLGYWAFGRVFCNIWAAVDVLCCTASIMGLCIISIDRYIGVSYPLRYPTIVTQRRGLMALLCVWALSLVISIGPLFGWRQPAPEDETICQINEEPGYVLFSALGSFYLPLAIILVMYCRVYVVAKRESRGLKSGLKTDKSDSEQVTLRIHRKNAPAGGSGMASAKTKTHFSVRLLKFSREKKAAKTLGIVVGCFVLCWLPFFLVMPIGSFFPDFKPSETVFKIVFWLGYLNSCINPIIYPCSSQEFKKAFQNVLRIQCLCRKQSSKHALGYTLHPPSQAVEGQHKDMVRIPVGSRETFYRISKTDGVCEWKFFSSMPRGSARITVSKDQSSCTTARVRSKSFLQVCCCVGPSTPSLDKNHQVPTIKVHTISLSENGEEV
Listed below: Ki values for each entry.
Observable: Ki

Compound: O=C1NCCN1CCN1CCC(c2cn(-c3ccc(F)cc3)c3ccc(Cl)cc23)CC1
Value observed: < 1 nM
//
Compound: O=C1CC2(CCCC2)CC(=O)N1CCCCN1CCN(c2nsc3ccccc23)CC1
Value observed: < 1 nM
//
Compound: Cc1nc2c(C)cccn2c(=O)c1CCN1CCC(c2noc3cc(F)ccc23)CC1
Value observed: < 1 nM
//
Compound: CN1CC2c3ccccc3Oc3ccc(Cl)cc3C2C1 (stereo not shown)
Value observed: < 1 nM
//
Compound: CCN1CCC[C@H]1CNC(=O)c1c(O)c(Cl)cc(Cl)c1OC [Raciopride]
Value observed: > 1000 nM
//
Compound: Fc1cccc2c1O[C@H]1CNC[C@@H]1O2
Value observed: 100 to 1000 nM
//
Compound: CCNC(=O)N1CCN(CCCC(c2ccc(F)cc2)c2ccc(F)cc2)CC1 [Amperozide]
Value observed: 10 to 100 nM

----------
Target or system: Alpha2B (Homo sapiens)
Sequence (P18089 1-450): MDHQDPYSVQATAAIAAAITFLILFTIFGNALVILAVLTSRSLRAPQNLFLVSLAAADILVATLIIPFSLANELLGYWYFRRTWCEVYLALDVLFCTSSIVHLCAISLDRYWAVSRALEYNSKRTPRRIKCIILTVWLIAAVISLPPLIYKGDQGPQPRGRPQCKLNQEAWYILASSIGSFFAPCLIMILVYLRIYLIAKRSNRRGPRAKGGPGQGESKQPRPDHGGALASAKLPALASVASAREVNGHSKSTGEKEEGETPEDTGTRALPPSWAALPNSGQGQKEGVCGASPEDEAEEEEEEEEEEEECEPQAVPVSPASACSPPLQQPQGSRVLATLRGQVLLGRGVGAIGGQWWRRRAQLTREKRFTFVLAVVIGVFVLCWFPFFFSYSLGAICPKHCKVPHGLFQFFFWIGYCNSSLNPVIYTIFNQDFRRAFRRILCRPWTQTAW
pKi: −log10 of the molar value.
Observable: pKi

Smiles str: Fc1cccc2c1O[C@H]1CNC[C@@H]1O2
Target or system: Alpha2B (Homo sapiens)
Value observed: 8.00 to 9.00

----------
pKi, 5HT7rat (Rattus norvegicus), per-entry values.
pKi: −log10 of the molar value.

Compound: CN1CC2c3ccccc3Oc3ccc(Cl)cc3C2C1 (centres unmarked)
pKi: > 9.00
//
Compound: O=C1Cc2cc(CCN3CCN(c4nsc5ccccc45)CC3)c(Cl)cc2N1
pKi: 8.00 to 9.00

----------
Listed below: Ki values for each entry.
Target or system: D2 (Homo sapiens)
Assay name: pKi of test compounds, D2 receptor
Format: binding
Condition: read-out: pKi D2 (converted)
Observable: Ki

Compound: CCNC(=O)N1CCN(CCCC(c2ccc(F)cc2)c2ccc(F)cc2)CC1 [Amperozide]
Observable: Ki
Value observed: 100 to 1000 nM
--
Compound: COC(=O)[C@@H]1[C@H]2C[C@H]3c4[nH]c5ccccc5c4CCN3C[C@@H]2CC[C@@H]1O [Yohimbine]
Observable: Ki
Value observed: 100 to 1000 nM
--
Compound: Cc1nc2c(C)cccn2c(=O)c1CCN1CCC(c2noc3cc(F)ccc23)CC1 [Ocaperidone]
Observable: Ki
Value observed: < 1 nM
--
Compound: O=C1NCN(c2ccccc2)C12CCN(CCCC(c1ccc(F)cc1)c1ccc(F)cc1)CC2 [Fluspirilene]
Observable: Ki
Value observed: < 1 nM

----------
pKi: −log10 of the molar value.
List of pKi tested on Alpha2A (Homo sapiens, UniProt P08913).
Sequence (P08913 whole entry): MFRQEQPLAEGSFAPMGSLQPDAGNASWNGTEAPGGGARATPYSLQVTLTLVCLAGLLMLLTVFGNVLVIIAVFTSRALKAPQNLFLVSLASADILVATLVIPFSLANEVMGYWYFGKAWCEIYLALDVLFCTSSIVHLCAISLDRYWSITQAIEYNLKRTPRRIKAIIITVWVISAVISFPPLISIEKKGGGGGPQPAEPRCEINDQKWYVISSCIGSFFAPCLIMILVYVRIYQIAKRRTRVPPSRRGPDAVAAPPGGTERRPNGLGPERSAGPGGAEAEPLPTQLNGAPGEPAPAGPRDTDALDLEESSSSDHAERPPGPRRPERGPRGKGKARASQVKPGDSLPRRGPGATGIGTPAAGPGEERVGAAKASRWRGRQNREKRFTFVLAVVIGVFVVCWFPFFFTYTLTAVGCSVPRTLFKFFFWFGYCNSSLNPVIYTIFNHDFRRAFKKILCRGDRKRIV

Compound: Fc1cccc2c1O[C@H]1CNC[C@@H]1O2 [Fluparoxan]
pKi: 8.00 to 9.00
//
Compound: O=C1CC2(CCCC2)CC(=O)N1CCCCN1CCN(c2nsc3ccccc23)CC1 [Tiospirone]
pKi: 6.00 to 7.00
//
Compound: CCNC(=O)N1CCN(CCCC(c2ccc(F)cc2)c2ccc(F)cc2)CC1 [Amperozide]
pKi: < 6.00
//
Compound: CCN1CCC[C@H]1CNC(=O)c1c(O)c(Cl)cc(Cl)c1OC [Raciopride]
pKi: < 6.00
//
Compound: CN1CC2c3ccccc3Oc3ccc(Cl)cc3C2C1 (stereo not drawn) [ORG5222]
pKi: 8.00 to 9.00
//
Compound: NC(=O)C1(N2CCCCC2)CCN(CCCC(=O)c2ccc(F)cc2)CC1 [Pipamperone]
pKi: 6.00 to 7.00
